Tested on: CD8F1 mice, subcutaneous mammary adenocarcinoma, T/C%
Assay: NCI In Vivo Anticancer Drug Screen. Data for tumor model Mammary Adenocarcinoma CD8F1 (subcutaneous) in CD8F1
Conditions: endpoint: median tumor weight change; dose: 250.0 mg/kg/injection; schedule: Q01DX001 (ip); vehicle: suspension in saline; higher = larger tumour
Description: The antitumor activity of compounds was measured in mice bearing transplantable tumors. Survival or tumor size were measured and the results are expressed as the measurement made in the treated group (T) divided by the measurement made in the vehicle treated control group (C). The tumor model used in this assay is Mammary Adenocarcinoma CD8F1 (subcutaneous) in CD8F1
Inconclusive results are not listed.
# T/C per entry

[[record]]
molecule = "Cc1ccc2nc(-c3ccc4nc(-c5ccc(N=Nc6ccc(-c7nc8ccc(-c9nc%10ccc(C)c(S(=O)(=O)O)c%10s9)cc8s7)cc6)cc5)sc4c3)sc2c1S(=O)(=O)O"
quantity_measured = "T/C"
experimental_result = "62 % of control"

[[record]]
molecule = "O=C(/C=C(\\Cl)C(=O)NO)NO"
quantity_measured = "T/C"
experimental_result = "83 % of control"

[[record]]
molecule = "C=CC(=O)NCNC(=O)C=C"
quantity_measured = "T/C"
experimental_result = "-28 % of control"


Provide measured T/C value, entry: `Nc1nc2n[nH]nc2c(=O)[nH]1` 73 % of control

Provide measured T/C value, entry: O=C(O)C(CSC(c1ccccc1)(c1ccccc1)c1ccccc1)N=Cc1cccs1 (stereo not drawn) 95 % of control

Provide measured T/C value, entry: `CS(=O)(=O)Nc1ccc(C(=O)CCN2CCCCCC2)cc1` 166 % of control

Provide measured T/C value, entry: `N=C(N)SCc1cccc2c(=O)cc(-c3ccccc3)oc12` 151 % of control

Provide measured T/C value, entry: COC1C(OC(=O)/C=C/C=C/C=C/C=C/C(=O)O)CCC2(CO2)C1C1(C)OC1CC=C(C)C (stereo not drawn) 56 % of control

====

# T/C per entry
System: CD8F1 mice, subcutaneous mammary adenocarcinoma, T/C%
Assay: NCI In Vivo Anticancer Drug Screen. Data for tumor model Mammary Adenocarcinoma CD8F1 (subcutaneous) in CD8F1
Settings: endpoint: median tumor weight change; dose: 25.0 mg/kg/injection; schedule: Q01DX001 (ip); vehicle: Klucel (hydroxypropylcellulose) (HPC); higher = larger tumour
Results filed as inconclusive are left out.

These recorded examples may help you get a feel for the data.
[[record]]
compound = "Cn1cc(C2NC(=O)c3ccccc3N2)c2ccccc21 (centres undefined)"
experimental_result = "85 % of control"

[[record]]
compound = "C#C[C@]1(O)CC[C@H]2[C@@H]3CCc4cc(O)ccc4[C@H]3CC[C@@]21C"
experimental_result = "78 % of control"

[[record]]
compound = "CN1CCc2c(c3ccccc3c3ccccc23)C1"
experimental_result = "65 % of control"


Provide measured T/C value, entry: COc1ccc2[nH]c3c(c2c1)CCNC3CC(C)CCC=C(C)C (centres undefined) 100 % of control

====

Test system: CD8F1 mice, subcutaneous mammary adenocarcinoma, T/C%
Test: NCI In Vivo Anticancer Drug Screen. Data for tumor model Mammary Adenocarcinoma CD8F1 (subcutaneous) in CD8F1
Settings: endpoint: median tumor weight (est.); dose: 400.0 mg/kg/injection; schedule: Q07DX005 (ip); vehicle: Klucel (hydroxypropylcellulose) (HPC); higher = larger tumour
Results filed as inconclusive are left out.
quantity measured: T/C

These recorded examples may help you get a feel for the data.
[[record]]
compound = "CN(C)/N=N/c1nc[nH]c1C(N)=O"
experimental_result = "16 % of control"

[[record]]
compound = "COC1C(CO)OC(n2cnc3c(=S)nc(N)[nH]c32)C1O (stereo unspecified)"
experimental_result = "22 % of control"

[[record]]
compound = "CC(C)CCC[C@@H](C)[C@H]1CC[C@H]2[C@@H]3CC=C4C[C@@H](OC(=O)Cc5ccc(N(CCCl)CCCl)cc5)CC[C@]4(C)[C@H]3CC[C@]12C"
experimental_result = "102 % of control"

[[record]]
compound = "ClCCCCCCCCCCc1ccccc1"
experimental_result = "72 % of control"


Give T/C for this entry on CD8F1 mice, subcutaneous mammary adenocarcinoma, T/C%: `CN(C)N=Nc1ccc(S(N)(=O)=O)cc1` 22 % of control

Give T/C for this entry on CD8F1 mice, subcutaneous mammary adenocarcinoma, T/C%: `O=c1ssc(=Nc2ccccc2)n1-c1ccccc1` 69 % of control

Give T/C for this entry on CD8F1 mice, subcutaneous mammary adenocarcinoma, T/C%: `Cc1cc(C)c(-c2cc(O)c(C)cc2O)c(C)c1` 28 % of control

Give T/C for this entry on CD8F1 mice, subcutaneous mammary adenocarcinoma, T/C%: `O=S(=O)(SC(S(=O)(=O)c1ccccc1)S(=O)(=O)c1ccccc1)c1ccccc1` 70 % of control

Give T/C for this entry on CD8F1 mice, subcutaneous mammary adenocarcinoma, T/C%: Ic1ncnc2c1ncn2C1CCCO1 (stereo unspecified) 41 % of control

Give T/C for this entry on CD8F1 mice, subcutaneous mammary adenocarcinoma, T/C%: `CNc1nc(NC)nc(NC)n1` 65 % of control

Give T/C for this entry on CD8F1 mice, subcutaneous mammary adenocarcinoma, T/C%: `C[C@]12CCC(=O)C(O)=C1CC[C@@H]1[C@@H]2CC[C@]2(C)C(=O)CC[C@@H]12` 32 % of control
